Molecular target: T1, O13-AA
T1 chain: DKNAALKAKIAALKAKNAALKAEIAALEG
Assay: two-hybrid library CCmax;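 further: natural log of median RNA to DNA barcode read ratio; higher means stronger binding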
Settings: mean of both orientations
# Lookup of reported interaction score keyed by entry
Parameter measured: interaction score

{"columns": ["Binder", "Observed value"],
 "data": [
  ["DEIAALEAKNAALKAKNAALKAKIAALKG [4H510-AA]", -1.66],
  ["DKNAALKAKNAALKAEIAALEAKIAALKG [4H4038-AA]", -2.19],
  ["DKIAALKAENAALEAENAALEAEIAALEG [4H2705-AA]", -1.17]
]}
